# studyTarget: T1, human IL-23 (IL-23-His-Biotin, Akesobio, 20161209) (human, UniProt Q9NPF7 20-189; P29460 23-328)
# T1 construct: His-tagged and biotinylated; also called human IL23-His-Biotin
# T1 sequence (looked up) 1: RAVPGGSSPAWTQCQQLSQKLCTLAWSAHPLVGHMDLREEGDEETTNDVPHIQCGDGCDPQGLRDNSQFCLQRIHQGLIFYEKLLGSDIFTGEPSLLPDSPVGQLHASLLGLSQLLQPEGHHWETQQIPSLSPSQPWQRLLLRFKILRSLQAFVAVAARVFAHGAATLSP
# T1 sequence (looked up) 2: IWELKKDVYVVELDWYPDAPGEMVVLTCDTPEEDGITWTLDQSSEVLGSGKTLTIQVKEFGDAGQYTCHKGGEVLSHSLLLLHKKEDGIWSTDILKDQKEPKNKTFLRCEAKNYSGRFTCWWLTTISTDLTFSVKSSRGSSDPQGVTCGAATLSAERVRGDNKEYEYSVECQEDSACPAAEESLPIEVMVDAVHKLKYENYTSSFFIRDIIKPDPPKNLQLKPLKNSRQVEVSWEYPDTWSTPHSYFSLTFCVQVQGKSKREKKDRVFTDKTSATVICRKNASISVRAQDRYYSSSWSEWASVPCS
# method: FACS competition, IL-23-His-Biotin 2 µg/mL on 293T-IL-12RB1&IL-23R cells, antibody 0.37 µg/mL
resultType: MFI

[
  {
    "binder": "H5L9 (antibody, human IgG1, kappa, V domains shown, Humanized anti-human IL-12/IL-23 p40 antibody; IgG1 (P01857) / kappa (P01834) constant regions) VH: EVQLVQSGAEVKKPGESLKISCQSSGYSFTTYWIGWVRQMPGQGLEWIGIMSPVDSDIRYNPMFRGQVTMSVDKSSSTAYLQWSSLKASDTAMYYCARRRPGQGYFDFWGQGTMVTVSS VL: DIQMTQSPSSLSASVGDRVTITCKASQNVGSWLAWYQQKPGKAPKSLIYSASSRQSGVPSRFSGSGSGTDFTLTISSLQPEDFATYYCQQYDIYPFTFGQGTKLEIKR",
    "resultValue": 206
  },
  {
    "binder": "H5L14 (antibody, human IgG1, kappa, V domains shown, IgG1/kappa) VH: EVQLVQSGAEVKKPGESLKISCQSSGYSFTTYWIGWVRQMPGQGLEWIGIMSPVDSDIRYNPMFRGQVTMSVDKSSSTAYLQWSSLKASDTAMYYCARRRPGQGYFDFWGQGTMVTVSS VL: EIVLTQSPATLSASPGERATISCRASQSVSSWLAWYQQKPGQAPRSLIYAASNLQSGIPARFSGSGSGTDFTLTISSLEPEDFAVYYCQQYNIYPFTFGQGTRLEIKR",
    "resultValue": 179
  },
  {
    "binder": "H5L12 (antibody, human IgG1, kappa, V domains shown, IgG1/kappa) VH: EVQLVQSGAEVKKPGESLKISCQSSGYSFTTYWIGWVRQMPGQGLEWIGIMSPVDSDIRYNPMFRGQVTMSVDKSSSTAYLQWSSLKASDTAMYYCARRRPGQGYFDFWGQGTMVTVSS VL: EIVLTQSPATLSASPGERATISCRASQSVSSWLAWYQQKPGQAPRSLIYAASNRQSGIPARFSGSGSGTDFTLTISSLEPEDFAVYYCQQYNIYPYTFGQGTRLEIKR",
    "resultValue": 177
  },
  {
    "binder": "H5L11 (antibody, human IgG1, kappa, V domains shown, IgG1/kappa) VH: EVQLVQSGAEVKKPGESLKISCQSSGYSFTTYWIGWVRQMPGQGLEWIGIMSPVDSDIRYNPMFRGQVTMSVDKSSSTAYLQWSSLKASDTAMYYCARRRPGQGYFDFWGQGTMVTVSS VL: EIVLTQSPATLSASPGERATISCRASQSVSSWLAWYQQKPGQAPRSLIYSASNLQSGIPARFSGSGSGTDFTLTISSLEPEDFAVYYCQQYNIYPYTFGQGTRLEIKR",
    "resultValue": 179
  },
  {
    "binder": "ustekinumab (trade name Stelara) (antibody, V domains shown) VH: EVQLVQSGAEVKKPGESLKISCKGSGYSFTTYWLGWVRQMPGKGLDWIGIMSPVDSDIRYSPSFQGQVTMSVDKSITTAYLQWNSLKASDTAMYYCARRRPGQGYFDFWGQGTLVTVSS VL: DIQMTQSPSSLSASVGDRVTITCRASQGISSWLAWYQQKPEKAPKSLIYAASSLQSGVPSRFSGSGSGTDFTLTISSLQPEDFATYYCQQYNIYPYTFGQGTKLEIK",
    "resultValue": 186
  },
  {
    "binder": "H5L10 (antibody, human IgG1, kappa, V domains shown, IgG1/kappa) VH: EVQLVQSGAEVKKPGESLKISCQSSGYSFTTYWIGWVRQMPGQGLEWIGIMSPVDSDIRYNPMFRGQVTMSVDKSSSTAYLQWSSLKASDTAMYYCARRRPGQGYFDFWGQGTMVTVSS VL: EIVLTQSPATLSASPGERATISCRASQSVGSWLAWYQQKPGQAPRSLIYAASNLQSGIPARFSGSGSGTDFTLTISSLEPEDFAVYYCQQYNIYPYTFGQGTRLEIKR",
    "resultValue": 169
  }
]
